# inhibition in vivo at 25 mg/kg listing for each entry below
# Tested on: Rattus norvegicus
# assay details: Antiallergic activity in rat assessed as inhibition of egg albumin-induced passive cutaneous anaphylaxis at 25 mg/kg, po treated for 15 mins followed by egg albumin-challenge measured after 30 mins relative to control
# Type: functional

| line notation | inhibition in vivo at 25 mg/kg / % |
| --- | --- |
| CCCCC(=O)Oc1ccc(N/C(C)=C2\C(=O)OC(=O)C(C(C)=O)=C2O)cc1 | 36 |
| CC(=O)C1=C(O)/C(=C(\C)Nc2ccc(N)cc2)C(=O)OC1=O | 23 |
| CC(=O)C1=C(O)/C(=C(\C)Nc2cccc(NS(N)(=O)=O)c2)C(=O)OC1=O | 13 |
| CC(=O)C1=C(O)/C(=C(\C)Nc2cccc(NC(=O)C(C)C)c2)C(=O)OC1=O | 46 |
| CC(=O)C1=C(O)/C(=C(\C)Nc2ccc(OCC(=O)O)cc2)C(=O)OC1=O | 2 |
| CC(=O)C1=C(O)/C(=C(\C)Nc2cccc(NS(=O)(=O)c3ccccc3)c2)C(=O)OC1=O | 7 |
| CC(=O)C1=C(O)/C(=C(\C)Nc2ccc(N)c(O)c2)C(=O)OC1=O | 40 |

----------
# inhibition in vivo at 5 mg/kg listing for each entry below
# System: Rattus norvegicus
# assay details: Antiallergic activity in rat assessed as inhibition of egg albumin-induced passive cutaneous anaphylaxis at 5 mg/kg, iv treated for 30 secs followed by egg albumin-challenge measured after 30 mins relative to control
# Assay type: functional
# experimental conditions: 0.5 h
endpoint label: inhibition in vivo at 5 mg/kg (%)

| line notation | measure unit | reported measurement |
| --- | --- | --- |
| COc1ccc(N(C)/C(C)=C2\C(=O)OC(=O)C(C(C)=O)=C2O)cc1 | % | 37 |
| CCOC(=O)c1ccccc1N/C(C)=C1\C(=O)OC(=O)C(C(C)=O)=C1O | % | 18 |
| CC(=O)Nc1ccc(N/C(C)=C2\C(=O)OC(=O)C(C(C)=O)=C2O)cc1 | % | 19 |
| CC(=O)C1=C(O)/C(=C(\C)N)C(=O)OC1=O | % | 17 |
| CC(=O)C1=C(O)/C(=C(\C)Nc2cc(O)ccc2N)C(=O)OC1=O | % | 47 |
| COc1ccc(N/C(C)=C2\C(=O)OC(=O)C(C(C)=O)=C2O)cc1 | % | 27 |
| COC(=O)c1ccc(N/C(C)=C2\C(=O)OC(=O)C(C(C)=O)=C2O)cc1 | % | 6 |
| CC(=O)C1=C(O)/C(=C(\C)N(C)c2ccc(O)cc2)C(=O)OC1=O | % | 42 |

----------
# inhibition in vivo at 0.5 mg/kg listing for each entry below
# Tested on: Rattus norvegicus
# assay details: Antiallergic activity in rat assessed as inhibition of egg albumin-induced passive cutaneous anaphylaxis at 0.5 mg/kg, iv treated for 30 secs followed by egg albumin-challenge measured after 30 mins relative to control
# Format: functional
# experimental conditions: 0.5 h
endpoint label: inhibition in vivo at 0.5 mg/kg

| line notation | target or system | reported measurement |
| --- | --- | --- |
| CC(=O)C1=C(O)/C(=C(\C)Nc2ccc(Br)cc2)C(=O)OC1=O | Rattus norvegicus | 0% |
| CC(=O)C1=C(O)/C(=C(\C)Nc2ccc(NS(=O)(=O)c3ccccc3)cc2)C(=O)OC1=O | Rattus norvegicus | 4% |
| CC(=O)C1=C(O)/C(=C(\C)Nc2ccc(S(N)(=O)=O)cc2)C(=O)OC1=O | Rattus norvegicus | 12% |
| CNc1cccc(N/C(C)=C2\C(=O)OC(=O)C(C(C)=O)=C2O)c1 | Rattus norvegicus | -8% |
| CNC(=O)c1cc(N/C(C)=C2\C(=O)OC(=O)C(C(C)=O)=C2O)ccc1O | Rattus norvegicus | 38% |
| COc1ccc(N/C(C)=C2\C(=O)OC(=O)C(C(C)=O)=C2O)cc1NC(C)=O | Rattus norvegicus | 27% |
| CC(=O)C1=C(O)/C(=C(\C)Nc2cccc(S(N)(=O)=O)c2)C(=O)OC1=O | Rattus norvegicus | 45% |

----------
# inhibition in vivo at 25 mg/kg listing for each entry below
# System: Rattus norvegicus
# assay details: Antiallergic activity in rat assessed as inhibition of egg albumin-induced passive cutaneous anaphylaxis at 25 mg/kg, po treated for 15 mins followed by egg albumin-challenge measured after 30 mins relative to control
# Assay type: functional

| molecule | measure unit | inhibition in vivo at 25 mg/kg |
| --- | --- | --- |
| CC(=O)C1=C(O)/C(=C(\C)Nc2ccc(NC(=O)C(C)C)cc2)C(=O)OC1=O | % | 4 |
| CCC(=O)Nc1cccc(N/C(C)=C2\C(=O)OC(=O)C(C(C)=O)=C2O)c1 | % | 70 |
| CC(=O)C1=C(O)/C(=C(\C)Nc2ccc(NC=O)cc2)C(=O)OC1=O | % | -6 |
| CC(=O)Nc1cc(O)cc(N/C(C)=C2\C(=O)OC(=O)C(C(C)=O)=C2O)c1 | % | 2 |
| CC(=O)C1=C(O)/C(=C(\C)Nc2cccc(O)c2)C(=O)OC1=O | % | 0 |
| CC(=O)Nc1ccc(O)c(N/C(C)=C2\C(=O)OC(=O)C(C(C)=O)=C2O)c1 | % | 4 |
| CC(=O)C1=C(O)/C(=C(\C)Nc2cccc(NC(=O)C(O)CO)c2)C(=O)OC1=O (stereo not given) | % | 55 |
| CC(=O)C1=C(O)/C(=C(\C)Nc2ccc(NS(N)(=O)=O)cc2)C(=O)OC1=O | % | 10 |
| CC(=O)Nc1cccc(N/C(C)=C2\C(=O)OC(=O)C(C(C)=O)=C2O)c1 | % | 53 |
| CCCC(=O)Nc1cc(NC(=O)CCC)cc(N/C(C)=C2\C(=O)OC(=O)C(C(C)=O)=C2O)c1 | % | 7 |
| CC(=O)C1=C(O)/C(=C(\C)Nc2cccc(NC(=N)N)c2)C(=O)OC1=O.O=[N+]([O-])O | % | -7 |
| CC(=O)C1=C(O)/C(=C(\C)Nc2cccc(NC(N)=O)c2)C(=O)OC1=O | % | 6 |
| CCOC(=O)Nc1cc(NC(=O)OCC)cc(N/C(C)=C2\C(=O)OC(=O)C(C(C)=O)=C2O)c1 | % | -18 |
| CC(=O)C1=C(O)/C(=C(\C)Nc2ccccc2O)C(=O)OC1=O | % | -12 |
| CC(=O)Nc1cc(N)cc(N/C(C)=C2\C(=O)OC(=O)C(C(C)=O)=C2O)c1 | % | 11 |
| CC(=O)C1=C(O)/C(=C(\C)Nc2ccc(NC(N)=O)cc2)C(=O)OC1=O | % | -17 |
| CC(=O)C1=C(O)/C(=C(\C)Nc2cc(O)c(O)c(O)c2)C(=O)OC1=O | % | -3 |
| CC(=O)Nc1cc(N/C(C)=C2\C(=O)OC(=O)C(C(C)=O)=C2O)ccc1O | % | 50 |
| CC(=O)C1=C(O)/C(=C(\C)Nc2ccccc2NC=O)C(=O)OC1=O | % | 31 |
| CC(=O)C1=C(O)/C(=C(\C)Nc2cccc(NC(=O)C(=O)C(=O)O)c2)C(=O)OC1=O | % | 21 |

----------
# Test system: Rattus norvegicus
# assay details: Antiallergic activity in rat assessed as inhibition of egg albumin-induced passive cutaneous anaphylaxis at 10 mg/kg, iv treated for 30 secs followed by egg albumin-challenge measured after 30 mins relative to control
# Type: functional
# experimental conditions: 0.5 h
endpoint label: inhibition in vivo at 10 mg/kg (%)

| line notation | target or system | endpoint label | measure unit | reported measurement |
| --- | --- | --- | --- | --- |
| CC(=O)C1=C(O)/C(=C(\C)Nc2ccc(C)cc2)C(=O)OC1=O | Rattus norvegicus | inhibition in vivo at 10 mg/kg | % | 33 |
| CC(=O)C1=C(O)/C(=C(\C)Nc2c(Cl)cccc2Cl)C(=O)OC1=O | Rattus norvegicus | inhibition in vivo at 10 mg/kg | % | 3 |
| CC(C)CC(=O)c1c(O)oc(=O)c(C(=O)CC(C)C)c1O | Rattus norvegicus | inhibition in vivo at 10 mg/kg | % | 23 |
| CC(=O)C1=C(O)/C(=C(\C)Nc2ccc(Cl)c(Cl)c2)C(=O)OC1=O | Rattus norvegicus | inhibition in vivo at 10 mg/kg | % | 10 |
| CCC(=O)c1c(O)oc(=O)c(C(=O)CC)c1O | Rattus norvegicus | inhibition in vivo at 10 mg/kg | % | 39 |
| CCCC(=O)c1c(O)oc(=O)c(C(=O)CCC)c1O | Rattus norvegicus | inhibition in vivo at 10 mg/kg | % | 3 |
| CC(=O)C1=C(O)/C(=C(\C)Nc2ccc([N+](=O)[O-])cc2)C(=O)OC1=O | Rattus norvegicus | inhibition in vivo at 10 mg/kg | % | 17 |
| CC(=O)C1=C(O)/C(=C(\C)Nc2ccc(F)cc2)C(=O)OC1=O | Rattus norvegicus | inhibition in vivo at 10 mg/kg | % | 54 |
| CC(=O)C1=C(O)/C(=C(\C)Nc2ccccc2Cl)C(=O)OC1=O | Rattus norvegicus | inhibition in vivo at 10 mg/kg | % | 36 |
| CCCCCCC(=O)c1c(O)oc(=O)c(C(=O)CCCCCC)c1O | Rattus norvegicus | inhibition in vivo at 10 mg/kg | % | 27 |
| CC(=O)C1=C(O)/C(=C(\C)Nc2ccc(Cl)cc2)C(=O)OC1=O | Rattus norvegicus | inhibition in vivo at 10 mg/kg | % | 84 |
| CC(=O)C1=C(O)/C(=C(\C)Nc2ccccc2)C(=O)OC1=O | Rattus norvegicus | inhibition in vivo at 10 mg/kg | % | 76 |
| CC(=O)C1=C(O)/C(=C(\C)Nc2cccc(Cl)c2)C(=O)OC1=O | Rattus norvegicus | inhibition in vivo at 10 mg/kg | % | 74 |
| CCCCC(=O)c1c(O)oc(=O)c(C(=O)CCCC)c1O | Rattus norvegicus | inhibition in vivo at 10 mg/kg | % | 69 |
